Molecular target: Aldehyde dehydrogenase 1A1 (Homo sapiens) (UniProt P00352)
Sequence (P00352 whole entry, looked up): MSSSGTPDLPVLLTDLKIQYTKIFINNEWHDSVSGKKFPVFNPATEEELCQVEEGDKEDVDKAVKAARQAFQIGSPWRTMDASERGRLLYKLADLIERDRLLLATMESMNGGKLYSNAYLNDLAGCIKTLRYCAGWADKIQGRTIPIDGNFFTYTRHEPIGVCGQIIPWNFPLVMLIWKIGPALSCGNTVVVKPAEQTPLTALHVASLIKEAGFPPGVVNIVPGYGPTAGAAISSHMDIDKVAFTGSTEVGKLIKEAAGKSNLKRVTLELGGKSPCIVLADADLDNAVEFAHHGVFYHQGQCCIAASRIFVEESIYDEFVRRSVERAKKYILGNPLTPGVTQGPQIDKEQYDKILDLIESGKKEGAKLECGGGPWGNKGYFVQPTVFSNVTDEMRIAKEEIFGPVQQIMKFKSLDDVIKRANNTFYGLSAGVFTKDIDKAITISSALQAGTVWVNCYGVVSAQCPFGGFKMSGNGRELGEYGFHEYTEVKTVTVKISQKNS
Test: qHTS Assay for Inhibitors of Aldehyde Dehydrogenase 1 (ALDH1A1); also: potency is read from the fitted curve at half-maximal effect
Settings: Purified ALDH1A1, NADH fluorescence, propionaldehyde substrate; series mostly up to 75.3 µM
Screen size: about 220,000 compounds; about 16,000 (7.3%) were called active. Inconclusive results (about 25%) are left out. The sample holds actives, similar compounds and a random draw of the others, so the mix is not that of the screen.
outcome-measure: Potency

The cases that follow already have their Potency on record.
{"compound": "COc1ccc(Nc2cc(C)nc(-n3nc(C)cc3C)n2)cc1", "target-or-test-system": "Aldehyde dehydrogenase 1A1 (Homo sapiens) (UniProt P00352)", "result": "inactive"}
{"compound": "COc1ccc(C(C[N+](=O)[O-])n2nc(C)cc2C)cc1 (stereo unspecified)", "target-or-test-system": "Aldehyde dehydrogenase 1A1 (Homo sapiens) (UniProt P00352)", "result": "10 µM (active)"}
{"compound": "S=C(Nc1ccc2c(c1)OCO2)N1CCCC1", "target-or-test-system": "Aldehyde dehydrogenase 1A1 (Homo sapiens) (UniProt P00352)", "result": "inactive"}
{"compound": "CCOC(=O)c1c(C)oc2ccc(OCC(=O)N(CC)CC)cc12", "target-or-test-system": "Aldehyde dehydrogenase 1A1 (Homo sapiens) (UniProt P00352)", "result": "11.2 µM (active)"}
{"compound": "COc1cccc2cc(S(=O)(=O)c3ccc(C)cc3)/c(=N/NS(=O)(=O)c3ccc(C)cc3)oc12", "target-or-test-system": "Aldehyde dehydrogenase 1A1 (Homo sapiens) (UniProt P00352)", "result": "inactive"}

[Q] Fill in Potency for COCCN(C(=O)CCC(=O)Nc1nccs1)C(C(=O)NC(C)(C)C)c1ccc(Cl)cc1 (stereo unspecified) tested with Aldehyde dehydrogenase 1A1 (Homo sapiens) (UniProt P00352).
[A] inactive

[Q] Give the observed Potency of `Fc1ccccc1COc1ccccc1CNCc1ccncc1` for Aldehyde dehydrogenase 1A1 (Homo sapiens) (UniProt P00352).
[A] inactive

[Q] Give Potency only, for `CCOC(=O)c1c(C)oc2cc(Br)c(OCC(N)=O)cc12` , using Aldehyde dehydrogenase 1A1 (Homo sapiens) (UniProt P00352) data.
[A] inactive

----------
Biological target: Aldehyde dehydrogenase 1A1 (Homo sapiens)
Assay: qHTS Assay for Inhibitors of Aldehyde Dehydrogenase 1 (ALDH1A1)
Details: Purified ALDH1A1, NADH fluorescence, propionaldehyde substrate; series mostly up to 75.3 µM
About 16,000 (7.3%) of roughly 220,000 compounds were called active. About 25% were inconclusive and are not listed. The call rests on the fitted dose curve; in most records, active means well fitted inhibition curve with a large enough effect (not every such curve was filed as active); inconclusive means small, poorly fitted or top-dose-only effect, or another doubt; inactive means no such curve, though single readings can be large or run the other way. The sample holds actives, similar compounds and a random draw of the others, so the mix is not that of the screen.
Give your call using only these classes: active, inactive

{"compound": "CCOc1ccc(-c2nnn(CC(=O)N3CCN(c4ccc(OC)cc4)CC3)n2)cc1OCC", "label": "inactive"}
{"compound": "COc1ccc2ccccc2c1CNc1nnnn1C", "label": "inactive"}

[Q] Tell me the assay call for `CC(C)Nc1nnc(SCC(=O)/C=C2\N(C)c3ccccc3C2(C)C)s1` please.
[A] inactive

[Q] Please state the recorded outcome for this compound: O=C(NCC(O)c1ccc([N+](=O)[O-])cc1)C1CCCCC1 (stereo unspecified)
[A] inactive

[Q] So what was the verdict on `CC(C)Nc1ncnc2c1nnn2Cc1ccccc1` in this test?
[A] active

[Q] How was CC1CC(C)CN(CCC(=O)Nc2ccc3c(c2)CCC3)C1 (stereo unspecified) classified in this test?
[A] inactive

[Q] Dear colleague, could you share the recorded outcome for `CC1=NCCN1S(=O)(=O)c1cccc([N+](=O)[O-])c1` when you have a moment?
[A] inactive

[Q] Given OCCC1CN(Cc2cccc(O)c2)CCN1CCc1ccccc1 (stereo unspecified) , state the outcome it received in this test.
[A] inactive

[Q] Returns: the outcome recorded for `CC(C)OCCCNC(=S)N1CCC(C(=O)c2ccc3c(c2)OCCO3)CC1` in this assay.
[A] inactive

[Q] Each compound tested received a call. Report the one for `COc1ccc(N2CCN(C(=O)CSc3ncnc4c3cnn4-c3ccc(OC)cc3)CC2)cc1` .
[A] inactive

[Q] Dear colleague, could you share the recorded outcome for CC(C)(C)c1nc(NCC2CCCO2)c2nnn(Cc3ccccc3)c2n1 (stereo unspecified) when you have a moment?
[A] inactive

----------
Biological target: Aldehyde dehydrogenase 1A1 (Homo sapiens) (UniProt P00352)
Experiment: qHTS Assay for Inhibitors of Aldehyde Dehydrogenase 1 (ALDH1A1)
Settings: Purified ALDH1A1, NADH fluorescence, propionaldehyde substrate; series mostly up to 75.3 µM
The campaign covered roughly 220,000 compounds. About 16,000 (7.3%) were called active. Roughly 25% stayed inconclusive and do not appear here. Calls come from the whole dose curve; as a rule, active = well fitted inhibition curve with a large enough effect (not every such curve was filed as active); inconclusive = small, poorly fitted or top-dose-only effect, or another doubt; inactive = no such curve, though single readings can be large or run the other way. The sample holds actives, similar compounds and a random draw of the others, so the mix is not that of the screen.
# output must be one of 1.0 = active, 0.0 = inactive

{"molecule": "COCCn1nnnc1C(c1cc2ccc(OC)cc2[nH]c1=O)N1CCc2ccccc2C1 (stereo unspecified)", "label": 1.0}
{"molecule": "COc1ccc(CN2CCN(Cc3cn(C)nc3-c3ccccc3)CC2CCO)c(C)c1C (stereo unspecified)", "label": 0.0}
{"molecule": "Fc1ccccc1N=C1Nc2cccc3cccc1c23", "label": 0.0}
{"molecule": "CCc1ccc(CN(C)Cc2nc(Cc3ccccc3)no2)nc1", "label": 0.0}
{"molecule": "COC(=O)c1cc(NC(=O)c2ccco2)ccc1N1CCOCC1", "label": 0.0}
{"molecule": "O=C(C1=C[C@H](c2coc3ccccc3c2=O)C[C@H](OCc2ccc(CO)cc2)O1)N1CCN(Cc2ccccc2)CC1", "label": 0.0}
{"molecule": "CCOc1ccc(N2C(=O)Nc3ccccc3C2(O)C(=O)NCc2ccco2)cc1 (stereo unspecified)", "label": 0.0}
{"molecule": "COc1ccccc1N(C)S(=O)(=O)c1ccc(Cl)c(C(=O)N2CCC(C(N)=O)CC2)c1", "label": 0.0}
{"molecule": "COc1ccc(S(=O)(=O)NCC2CCCN(C(=O)c3occc3C)C2)cc1 (stereo unspecified)", "label": 1.0}
{"molecule": "CCc1[nH]nc(C(=O)N2CCCC(CNS(=O)(=O)c3cccs3)C2)c1C (stereo unspecified)", "label": 0.0}

Please find the next molecule below.
[Q] Record lookup: outcome of this test for CC1=C(C(=O)N(C)C)C(c2ccccc2OC(F)F)NC(=O)N1 (stereo unspecified) ?
[A] 0.0

----------
Target: Aldehyde dehydrogenase 1A1 (Homo sapiens) (UniProt P00352)
Test: qHTS Assay for Inhibitors of Aldehyde Dehydrogenase 1 (ALDH1A1)
Settings: Purified ALDH1A1, NADH fluorescence, propionaldehyde substrate; series mostly up to 75.3 µM
Hit rate of the full screen: of about 220,000 compounds, about 16,000 (7.3%) were called active. Inconclusive results (about 25%) are left out. Calls follow the shape of the dose curve; as a rule, active = well fitted inhibition curve with a large enough effect (not every such curve was filed as active); inconclusive = small, poorly fitted or top-dose-only effect, or another doubt; inactive = no such curve, though single readings can be large or run the other way. The list comes from a sample in which actives are over-represented; it also holds close analogues and randomly drawn compounds.
Log the outcome using a class from active, inactive

{"molecule": "CC(=O)N1CCN(S(=O)(=O)c2cccc(C(=O)NC3CCC(C)CC3)c2)CC1 (stereo unspecified)", "label": "inactive"}
{"molecule": "O=C(CCS(=O)(=O)Cc1ccccc1)Nc1ccc2c(c1)OCCO2", "label": "inactive"}
{"molecule": "Cc1ccc(CNC(=O)CCCNC(=O)c2ccc(Cl)cc2)n1C", "label": "active"}
{"molecule": "CN(C)/C=C1/Nc2ccccc2C1=O", "label": "active"}
{"molecule": "O=C(COC(=O)CCCNC(=O)c1ccc(Cl)cc1)Nc1cc(Cl)ccc1Cl", "label": "inactive"}
{"molecule": "Cc1c(Cl)cccc1NC(=O)Nc1ccc(C(=O)N2CCCC2)cc1", "label": "active"}

[Q] Could you please tell me the result logged for `Cc1cc(C)n(Cc2cnc(N3CCOCC3)s2)n1` in this assay?
[A] inactive

[Q] Hello, I am checking results. What call was entered for `Cc1cccc(C(=O)Nc2ccc(CC(=O)O)cc2)c1` ?
[A] inactive

[Q] Dear colleague, could you share the recorded outcome for `O=S(=O)(c1cccc(C(F)(F)F)c1)N1CCN(c2cnccn2)CC1` when you have a moment?
[A] inactive

[Q] For `CCCCNC(=O)CCNC(=O)c1ccc(C(C)(C)C)cc1` , what call appears in the results of this test?
[A] inactive

[Q] For this molecule, state the assay outcome: `Cc1cccc(C(=O)Nc2ccc3c(c2)C(=O)N(CC(C)C)C3=O)c1`
[A] active

----------
Target: Aldehyde dehydrogenase 1A1 (Homo sapiens)
Assay: qHTS Assay for Inhibitors of Aldehyde Dehydrogenase 1 (ALDH1A1)
Conditions: Purified ALDH1A1, NADH fluorescence, propionaldehyde substrate; series mostly up to 75.3 µM
Among all 220,000 compounds or so, about 16,000 (7.3%) were called active. Another 25% or so got no clear call; they are omitted. The call rests on the fitted dose curve; in most records, active means well fitted inhibition curve with a large enough effect (not every such curve was filed as active); inconclusive means small, poorly fitted or top-dose-only effect, or another doubt; inactive means no such curve, though single readings can be large or run the other way. The list comes from a sample in which actives are over-represented; it also holds close analogues and randomly drawn compounds.
Pick one and only one: y = active, n = inactive

Previously resolved entries follow.
{"compound": "Cc1cc(NC(=O)c2cccc(N3C(=O)CCC3=O)c2)no1", "target-or-test-system": "Aldehyde dehydrogenase 1A1 (Homo sapiens)", "label": "y"}
{"compound": "CCCCN(CC(=O)NC(C)(C)C)C(=O)C(=O)Nc1ccc2c(c1)OCCO2", "target-or-test-system": "Aldehyde dehydrogenase 1A1 (Homo sapiens)", "label": "n"}

[Q] What call does the record list for `O=C1N=C(N2CCOCC2)S/C1=C\C=C/c1ccccc1` ?
[A] n

[Q] In this assay, the call recorded for `COc1ccccc1-c1nnc(NC(=O)c2cccc(N3C(=O)CCC3=O)c2)o1` was what?
[A] n

[Q] Which outcome did this test record for the compound COCCn1c(C)cc(C(=O)CSc2nc3ccccc3c(=O)n2C(C)COC)c1C (stereo unspecified) ?
[A] n

[Q] Per the records of this test, what outcome belongs to `Cc1cc(C)nc(SCC(=O)N(C)C)n1` ?
[A] n
